target: human ether-à-go-go-related gene (hERG) potassium channel (human); assay: primary screen, population patch clamp on CHO cells stably expressing hERG; higher = less effect of the substance;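 further: peak tail current of the secondary pulse compared with the same well before compound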
Sequence (Q12809 whole entry, looked up): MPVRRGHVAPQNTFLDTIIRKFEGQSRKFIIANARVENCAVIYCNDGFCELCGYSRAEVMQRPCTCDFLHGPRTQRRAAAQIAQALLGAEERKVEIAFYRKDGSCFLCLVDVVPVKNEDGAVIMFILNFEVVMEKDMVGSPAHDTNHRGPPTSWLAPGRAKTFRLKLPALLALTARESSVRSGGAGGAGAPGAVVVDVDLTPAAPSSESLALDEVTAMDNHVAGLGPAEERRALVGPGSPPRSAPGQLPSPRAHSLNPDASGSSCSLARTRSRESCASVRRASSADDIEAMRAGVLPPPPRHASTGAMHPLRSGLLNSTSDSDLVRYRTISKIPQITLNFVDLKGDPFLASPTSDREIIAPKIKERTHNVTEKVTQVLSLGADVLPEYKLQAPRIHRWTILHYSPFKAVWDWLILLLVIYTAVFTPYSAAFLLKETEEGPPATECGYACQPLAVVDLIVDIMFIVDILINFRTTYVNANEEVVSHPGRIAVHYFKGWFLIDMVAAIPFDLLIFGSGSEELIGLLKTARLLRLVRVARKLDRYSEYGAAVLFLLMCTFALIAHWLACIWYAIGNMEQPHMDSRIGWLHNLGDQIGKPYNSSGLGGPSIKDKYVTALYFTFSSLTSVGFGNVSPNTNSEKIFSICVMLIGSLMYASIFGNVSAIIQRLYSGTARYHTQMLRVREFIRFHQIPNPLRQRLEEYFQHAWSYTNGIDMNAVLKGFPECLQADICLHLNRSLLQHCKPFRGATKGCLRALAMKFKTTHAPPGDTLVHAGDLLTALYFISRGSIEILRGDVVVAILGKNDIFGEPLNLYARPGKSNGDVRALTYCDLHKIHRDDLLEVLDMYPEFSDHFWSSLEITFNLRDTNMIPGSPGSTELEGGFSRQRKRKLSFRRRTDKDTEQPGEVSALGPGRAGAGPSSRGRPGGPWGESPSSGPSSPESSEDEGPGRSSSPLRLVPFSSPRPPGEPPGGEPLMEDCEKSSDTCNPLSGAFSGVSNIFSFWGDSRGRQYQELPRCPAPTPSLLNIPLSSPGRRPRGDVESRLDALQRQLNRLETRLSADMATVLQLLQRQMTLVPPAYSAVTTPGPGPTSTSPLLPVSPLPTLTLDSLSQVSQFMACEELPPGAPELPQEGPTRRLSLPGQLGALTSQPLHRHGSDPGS
Among all 310,000 compounds or so, about 14,000 (4.5%) showed an effect of 50% or more. The effect is printed as a negative number. Only a selection was taken, and strong results are over-represented in it overall.
Each entry below carries its recorded hERG current change (%, negative = inhibition) at 10uM.
value-kind: hERG current change (%, negative = inhibition) at 10uM (%)

molecule	value-unit	endpoint-value
NC(=O)[C@H]1CC2(CC(c3cccc(NC(=O)[C@H]4CCC(=O)N4)c3)=NO2)CN1C(=O)c1ccccc1C(=O)c1ccccc1 (stereo partly drawn)	%	14.7
CN1CCN(C(=O)C2=C[C@H](c3ccc(Br)cc3)C[C@H](OCCCCO)O2)CC1	%	-47.7
O=C(C1=C[C@@H](c2ccc(Br)cc2)C[C@@H](OCCCCO)O1)N1CCN(Cc2ccccc2)CC1	%	-91.7
CCN(CC)CCNC(=O)c1ccc(NC(=O)c2c(C)nn(-c3ccc(F)cc3)c2Cl)cc1	%	-60
CC(=O)c1cccc(N(CC(=O)Nc2cc(C)cc(C)c2)S(C)(=O)=O)c1	%	13.3
CN(c1ccc(C(=O)N2CCCCC2)cc1)S(C)(=O)=O	%	10.6
CCO[C@@H]1OC(C(=O)N2CCCCCCC2)=C[C@H](c2ccc(C(F)(F)F)cc2)[C@H]1CCCO	%	-21.4
C#CCNC(=O)C1=C[C@@H](c2ccc(C(F)(F)F)cc2)C[C@@H](OCCCCO)O1	%	-53.8
C#Cc1ccc([C@@H]2C=C(C(=O)N3CCOCC3)O[C@H](OCCCCO)C2)cc1	%	17.3
C#Cc1ccc([C@H]2C=C(C(=O)N3CCN(Cc4ccccc4)CC3)O[C@@H](OCc3ccc(CO)cc3)C2)cc1	%	-13.3
CCN(CC)CCNC(=O)c1ccc(NC(=O)c2c(F)cccc2Cl)cc1	%	-12.4
Cc1cccc(NS(=O)(=O)c2ccc(OCC(=O)N3CCCC3)cc2)c1	%	-19.1
COC(=O)c1cccc(NC(=O)Cn2nnc3ccccc32)c1	%	0.234
O=C(C1=C[C@H](c2ccccc2)C[C@H](OCCCCO)O1)N1CCN(Cc2ccccc2)CC1	%	-38.9
COc1ccc(CC(=O)N2CCN(c3ccccn3)CC2)cc1OC	%	8.9
C#Cc1ccc([C@@H]2C=C(C(=O)N3CCN(Cc4ccccc4)CC3)O[C@H](OCCCCO)C2)cc1	%	-56
O=C(O)CSc1ccnc2cc(Cl)ccc12	%	16.2
CC1(C)CC(=O)c2cc(C(=O)N3CCCC(C)(C)C3)c(=O)n(-c3ccccc3)c2C1	%	11.5
